Biological target: UniProt:Q9NR97
Sequence (Q9NR97 27-1041): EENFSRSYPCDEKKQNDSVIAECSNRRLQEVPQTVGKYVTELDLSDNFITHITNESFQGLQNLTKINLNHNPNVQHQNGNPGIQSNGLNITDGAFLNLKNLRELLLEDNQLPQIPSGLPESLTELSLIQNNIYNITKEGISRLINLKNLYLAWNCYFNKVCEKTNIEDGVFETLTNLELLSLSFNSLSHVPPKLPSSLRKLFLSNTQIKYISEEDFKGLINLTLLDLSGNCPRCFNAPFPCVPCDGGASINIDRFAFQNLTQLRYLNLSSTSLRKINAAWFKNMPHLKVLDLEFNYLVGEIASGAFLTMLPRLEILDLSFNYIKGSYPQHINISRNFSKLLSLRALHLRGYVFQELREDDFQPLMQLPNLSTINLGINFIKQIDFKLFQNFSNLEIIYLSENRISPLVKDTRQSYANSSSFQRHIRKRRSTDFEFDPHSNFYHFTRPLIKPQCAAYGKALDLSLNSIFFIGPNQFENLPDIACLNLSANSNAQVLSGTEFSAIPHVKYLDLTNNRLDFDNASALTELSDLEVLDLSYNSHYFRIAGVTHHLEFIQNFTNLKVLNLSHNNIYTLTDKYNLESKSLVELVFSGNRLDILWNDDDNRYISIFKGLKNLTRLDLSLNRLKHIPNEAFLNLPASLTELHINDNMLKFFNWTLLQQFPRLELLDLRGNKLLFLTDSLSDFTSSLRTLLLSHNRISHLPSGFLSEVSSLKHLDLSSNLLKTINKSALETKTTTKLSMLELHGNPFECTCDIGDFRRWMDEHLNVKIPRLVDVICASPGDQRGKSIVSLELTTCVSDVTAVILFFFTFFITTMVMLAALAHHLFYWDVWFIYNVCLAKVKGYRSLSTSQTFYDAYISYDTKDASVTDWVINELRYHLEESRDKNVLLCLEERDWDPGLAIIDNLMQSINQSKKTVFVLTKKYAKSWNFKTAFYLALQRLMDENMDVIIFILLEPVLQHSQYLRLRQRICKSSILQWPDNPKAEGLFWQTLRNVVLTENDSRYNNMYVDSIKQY
Test: Dose dependent TLR8-mediated NF-κB-luciferase response in HEK293 cells transfected with TLR8 (Example 5)
Assay type: cell-based
Set-up: expressed in transfected cells; host or cells: HEK293 (ATCC CRL-1573), pIRES vector, G-418 selected, co-transfected with NFkB-luc reporter
Conditions: 0.3 μM
Assay Metric: Fold increase over vehicle (fold)

// solved cases for Fold increase over vehicle follow
CCOCc1nc2c(N)nc3c(c2n1NC(C)C)CCCC3 1.0
CCCNC(=O)NC(C)(C)Cn1c(COCC)nc2c(N)nc3ccccc3c21 1.1
CCCCc1nc2c(N)nc3ccccc3c2n1CCS(=O)(=O)CC 0.9

(1) COCCc1nc2c(N)nc3ccccc3c2n1CCCCNC(=O)c1cnc2ccccc2c1
(2) CCOCc1nc2c(N)nc3cc(-c4ccncc4)ccc3c2n1CC(C)(C)O
input: Of 1 and 2 , whose reported Fold increase over vehicle is the larger number? Let me know the label of the one you choose.
output: 2
(2: 1.8 fold, 1: 0.9 fold)
